meta.source: paper PMC8346002

tested-system: histone-like nucleoid structuring protein (H-NS) (Escherichia coli, UniProt P0ACF8)
Construct: inferred from Ni-NTA/imidazole purification; made in house; host or cells: E. coli BL21 (DE3); over-expressing strain obtained from Dr. Hyon E. Choy, originally from Dr. Bremer's laboratory
Sequence (P0ACF8 whole entry): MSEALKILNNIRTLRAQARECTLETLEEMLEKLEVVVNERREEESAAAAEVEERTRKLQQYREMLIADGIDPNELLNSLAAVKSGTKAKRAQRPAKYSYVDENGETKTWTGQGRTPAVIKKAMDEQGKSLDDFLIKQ
method-summary: biochemical
Assay type: binding
property-name: pKd
Recall that pKd is obtained by taking minus log10 of the concentration measured in molar.

Given the compound Nc1ncnc2c1ncn2[C@@H]1O[C@@H]2COP(=O)(O)O[C@H]2[C@H]1O , what is its reported pKd?
3.57

====

tested-system: histone-like nucleoid structuring protein (H-NS) (Escherichia coli, UniProt P0ACF8)
Construct: inferred from Ni-NTA/imidazole purification; made in house; host or cells: E. coli BL21 (DE3); over-expressing strain obtained from Dr. Hyon E. Choy, originally from Dr. Bremer's laboratory
method-summary: biochemical
Assay type: binding
test-settings: H-NS 10 µM, 25 °C, 50 mM MOPS pH 7.5, excitation 280 nm, ΔF(area) 322-336 nm; read-out: KD for nucleotide ligands on H-NS
property-name: pKd
// pKd is dimensionless: -log10 of concentration (M)

Nc1nc2c(ncn2[C@@H]2O[C@H](COP(=O)(O)OP(=O)(O)OP(=O)(O)O)[C@@H](O)[C@H]2O)c(=O)[nH]1 : 3.92

Which measured pKd value corresponds to Nc1nc2c(ncn2[C@@H]2O[C@H](COP(=O)(O)OP(=O)(O)O)[C@@H](O)[C@H]2O)c(=O)[nH]1 ?
4.14

====

tested-system: cAMP receptor protein (CRP) (Escherichia coli, UniProt P0ACJ8)
Sequence (P0ACJ8 whole entry): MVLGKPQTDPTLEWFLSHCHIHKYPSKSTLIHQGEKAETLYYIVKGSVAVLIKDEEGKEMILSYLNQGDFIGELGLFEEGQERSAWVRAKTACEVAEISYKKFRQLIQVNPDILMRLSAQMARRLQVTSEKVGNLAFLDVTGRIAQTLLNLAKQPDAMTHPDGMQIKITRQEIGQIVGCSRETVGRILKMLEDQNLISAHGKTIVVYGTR
property-name: Kd (µM)
Report only the number, with the unit µM understood.

Nc1nc2c(ncn2[C@@H]2O[C@@H]3COP(=O)(O)O[C@H]3[C@H]2O)c(=O)[nH]1 : 17
Nc1ncnc2c1ncn2[C@@H]1O[C@H](COP(=O)(O)OP(=O)(O)OP(=O)(O)O)[C@@H](O)[C@H]1O : 33
Nc1nc2c(ncn2[C@@H]2O[C@H](COP(=O)(O)OP(=O)(O)O)[C@@H](O)[C@H]2O)c(=O)[nH]1 : 62

Attention now shifts to the item below.
# query: Kd | item Nc1nc2c(ncn2[C@@H]2O[C@H](COP(=O)(O)OP(=O)(O)OP(=O)(O)O)[C@@H](O)[C@H]2O)c(=O)[nH]1 | system: cAMP receptor protein (CRP) (Escherichia coli, UniProt P0ACJ8)
35
